B1: mRNA-decapping enzyme 1A (Homo sapiens), Q9NPI6 (parent)
chain: MEALSRAGQEMSLAALKQHDPYITSIADLTGQVALYTFCPKANQWEKTDIEGTLFVYRRSASPYHGFTIVNRLNMHNLVEPVNKDLEFQLHEPFLLYRNASLSIYSIWFYDKNDCHRIAKLMADVVEEETRRSQQAARDKQSPSQANGCSDHRPIDILEMLSRAKDEYERNQMGDSNISSPGLQPSTQLSNLGSTETLEEMPSGSQDKSAPSGHKHLTVEELFGTSLPKEQPAVVGLDSEEMERLPGDASQKEPNSFLPFPFEQLGGAPQSETLGVPSAAHHSVQPEITTPVLITPASITQSNEKHAPTYTIPLSPVLSPTLPAEAPTAQVPPSLPRNSTMMQAVKTTPRQRSPLLNQPVPELSHASLIANQSPFRAPLNVTNTAGTSLPSVDLLQKLRLTPQHDQIQTQPLGKGAMVASFSPAAGQLATPESFIEPPSKTAAARVAASASLSNMVLAPLQSMQQNQDPEVFVQPKVLSSAIPVAGAPLVTATTTAVSSVLLAPSVFQQTVTRSSDLERKASSPSPLTIGTPESQRKPSIILSKSQLQDTLIHLIKNDSSFLSTLHEVYLQVLTKNKDNHNL

Variants of: B1
Conditions: with dcp2_human DCP2, Q8IU60
Recorded Metric: effect of a mutation on the interaction

Mutant Designation: N74G
Obs Value: with no effect

Mutant Designation: R72G
Obs Value: with no effect

Mutant Designation: R72G;L73S;N74S;M75G
Obs Value: with no effect
